Cited source: ChEMBL document CHEMBL1149714

# Test system: Pseudomonas aeruginosa
# Assay Protocol: Antibacterial activity against Imipenem resistant Pseudomonas aeruginosa SR-6554 after 20 hrs by agar dilution method
# Format: functional
Rule: MIC below 20 µg/mL gives satisfied. Equal to or above 20 µg/mL gives not satisfied.

These solved cases illustrate the format of a correct answer.
CNCCCn1ccc2c1ccc[n+]2CC1=C(C(=O)[O-])N2C(=O)[C@@H](NC(=O)/C(=N\O[C@H](C(=O)O)C(C)C)c3nc(N)sc3Cl)[C@H]2SC1	satisfied
CNCCCn1ccc2c1ccc[n+]2CC1=C(C(=O)[O-])N2C(=O)[C@@H](NC(=O)/C(=N\OC3(C(=O)O)CC3)c3nc(N)sc3Cl)[C@H]2SC1	satisfied
CNCCCn1ccc2c1ccc[n+]2CC1=C(C(=O)[O-])N2C(=O)[C@@H](NC(=O)/C(=N\OCC(=O)O)c3nc(N)sc3Cl)[C@H]2SC1	satisfied
CNCCCn1ccc2c1ccc[n+]2CC1=C(C(=O)[O-])N2C(=O)[C@@H](NC(=O)/C(=N\O[C@@H](C)C(=O)O)c3nc(N)sc3Br)[C@H]2SC1	satisfied
CNCCCn1ccc2c1ccc[n+]2CC1=C(C(=O)[O-])N2C(=O)[C@@H](NC(=O)/C(=N\O[C@H](C)C(=O)O)c3nc(N)sc3Cl)[C@H]2SC1	satisfied
C=C(O/N=C(\C(=O)N[C@@H]1C(=O)N2C(C(=O)[O-])=C(C[n+]3cccc4c3ccn4CCCNC)CS[C@H]12)c1nc(N)sc1Cl)C(=O)O	not satisfied

Prompt line: Here's an entry: CNCCCn1ccc2c1ccc[n+]2CC1=C(C(=O)[O-])N2C(=O)[C@@H](NC(=O)/C(=N\O[C@@H](C)C(=O)O)c3csc(N)n3)[C@H]2SC1 . Is its MIC below 20 µg/mL?
Response line: satisfied

Prompt line: Here's an entry: CNCCCn1ccc2c1ccc[n+]2CC1=C(C(=O)[O-])N2C(=O)[C@@H](NC(=O)/C(=N\OC(C)(C)C(=O)O)c3csc(N)n3)[C@H]2SC1 . Is its MIC below 20 µg/mL?
Response line: satisfied

Prompt line: Here's an entry: CNCCCn1ccc2c1ccc[n+]2CC1=C(C(=O)[O-])N2C(=O)[C@@H](NC(=O)/C(=N\O[C@@H](C)C(=O)O)c3nc(N)sc3Cl)[C@H]2SC1 . Is its MIC below 20 µg/mL?
Response line: satisfied

Prompt line: Here's an entry: CC(C)(O/N=C(\C(=O)N[C@@H]1C(=O)N2C(C(=O)[O-])=C(C[n+]3ccccc3)CS[C@H]12)c1csc(N)n1)C(=O)O [CEFTAZIDIME] . Is its MIC below 20 µg/mL?
Response line: not satisfied

Prompt line: Here's an entry: CNCCCn1ccc2c1ccc[n+]2CC1=C(C(=O)[O-])N2C(=O)[C@@H](NC(=O)/C(=N\O[C@@H](C)C(=O)O)c3nsc(N)n3)[C@H]2SC1 . Is its MIC below 20 µg/mL?
Response line: satisfied

Prompt line: Here's an entry: CC[C@H](O/N=C(\C(=O)N[C@@H]1C(=O)N2C(C(=O)[O-])=C(C[n+]3cccc4c3ccn4CCCNC)CS[C@H]12)c1nc(N)sc1Cl)C(=O)O . Is its MIC below 20 µg/mL?
Response line: satisfied

Prompt line: Here's an entry: CNCCCn1ccc2c1ccc[n+]2CC1=C(C(=O)[O-])N2C(=O)[C@@H](NC(=O)/C(=N\O[C@@H](C)C(=O)O)c3nc(N)sc3C)[C@H]2SC1 . Is its MIC below 20 µg/mL?
Response line: not satisfied
